Species on record: Rattus norvegicus
assay-remarks: Open TG-GATES - Regimen: Daily Repeat
Type: toxicity, organism-based, Sprague-Dawley
Design: regimen Daily Repeat, gender Male, age 6 weeks
protocol-conditions: in vivo, po, 0 mg/kg, 72 h, tissue Kidney, route gavage, dose level Control, time 3 day
Please go through the items and note down their KIDNEY_R.
Quick note: give the figure in g, leave out the unit.

Exercise: // KIDNEY_R lookup, key: CC[C@H]1[C@@H]2C[C@H]3[C@@H]4N(C)c5ccccc5[C@]45C[C@@H]([C@@H]2[C@H]5O)N3[C@@H]1O [AJMALINE]
Key: 1

Exercise: Also, O=NN(CCCl)C(=O)NC1CCCCC1 [LOMUSTINE] please.
Key: 1

Exercise: Entry to check: OCCOCCN1CCN(C(c2ccccc2)c2ccc(Cl)cc2)CC1 (stereo unspecified) [HYDROXYZINE]
Key: 1

Exercise: Record: CN(C)C(=N)N=C(N)N [METFORMIN]
Key: 1

Exercise: Ok, now CCc1oc2ccccc2c1C(=O)c1cc(Br)c(O)c(Br)c1 [BENZBROMARONE]
Key: 1

Exercise: Next entry: ClC(Cl)(Cl)Cl [CARBON TETRACHLORIDE]
Key: 1

Exercise: Next compound: CC1=C(CC(=O)O)c2cc(F)ccc2/C1=C\c1ccc([S+](C)[O-])cc1 (stereo unspecified)
Key: 1

Exercise: Please answer likewise for CN(C)CCC=C1c2ccccc2COc2ccccc21 [DOXEPIN]
Key: 1

Exercise: Quick one: CC(C)N(CCC(C(N)=O)(c1ccccc1)c1ccccn1)C(C)C (stereo unspecified) [DISOPYRAMIDE]
Key: 1

Exercise: Then CCC1(c2ccccc2)C(=O)NC(=O)NC1=O [PHENOBARBITAL] ?
Key: 1

Exercise: Continue with CCCCc1oc2ccccc2c1C(=O)c1cc(I)c(OCCN(CC)CC)c(I)c1 [AMIODARONE]
Key: 1
